The reported measurements were obtained from patent US20240270826A1.

- Assay Target: T1, SARS-CoV-2 S1 (aa16-685) (Wuhan) (SARS-CoV-2 Wuhan, UniProt P0DTC2 16-685)
- T1 construct: NRC; FLAG, 6xHis tags
- Test Method Notes: SPR, antigen on chip
For each entry below, report its log10 Kd value.
Heads up, the numbers here are log10 of Kd in nM units.

Reported log10 Kd of NRCoV2-07 VHH (VHH) VHH: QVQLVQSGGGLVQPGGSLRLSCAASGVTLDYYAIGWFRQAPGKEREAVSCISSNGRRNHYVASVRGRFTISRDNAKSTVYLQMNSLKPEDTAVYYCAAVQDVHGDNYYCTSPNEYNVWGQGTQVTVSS : 0.01

Reported log10 Kd of NRCoV2-15 VHH (VHH) VHH: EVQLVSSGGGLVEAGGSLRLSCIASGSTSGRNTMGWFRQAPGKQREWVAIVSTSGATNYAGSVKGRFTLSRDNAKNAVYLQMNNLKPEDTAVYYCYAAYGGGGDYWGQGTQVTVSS : -0.48

Reported log10 Kd of NRCoV2-20 VHH (VHH) VHH: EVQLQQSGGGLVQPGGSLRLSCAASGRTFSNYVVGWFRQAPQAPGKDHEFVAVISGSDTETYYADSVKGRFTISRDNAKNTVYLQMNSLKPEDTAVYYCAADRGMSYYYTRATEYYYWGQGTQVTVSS : 0.98

Reported log10 Kd of NRCoV2-11 VHH (VHH) VHH: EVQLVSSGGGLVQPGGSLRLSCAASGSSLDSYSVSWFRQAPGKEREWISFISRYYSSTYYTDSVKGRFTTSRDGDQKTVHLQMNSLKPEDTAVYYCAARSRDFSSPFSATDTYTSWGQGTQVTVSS : -0.78

Reported log10 Kd of NRCoV2-03 VHH (VHH) VHH: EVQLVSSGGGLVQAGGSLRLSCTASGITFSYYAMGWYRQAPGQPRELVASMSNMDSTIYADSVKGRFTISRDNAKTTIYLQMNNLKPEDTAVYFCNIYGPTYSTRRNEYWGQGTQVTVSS : 0.04

Reported log10 Kd of NRCoV2-05 VHH (VHH) VHH: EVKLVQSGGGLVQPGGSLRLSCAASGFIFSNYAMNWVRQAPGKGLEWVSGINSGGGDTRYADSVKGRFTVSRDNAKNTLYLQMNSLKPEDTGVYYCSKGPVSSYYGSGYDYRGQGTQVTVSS : 0.30

Reported log10 Kd of NRCoV2-1d VHH (VHH) VHH: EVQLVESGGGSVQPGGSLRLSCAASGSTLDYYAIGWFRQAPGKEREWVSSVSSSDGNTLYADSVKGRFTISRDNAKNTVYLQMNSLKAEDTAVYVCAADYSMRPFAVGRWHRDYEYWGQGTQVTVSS : 0.12

Reported log10 Kd of NRCoV2-SR02 VHH (VHH) VHH: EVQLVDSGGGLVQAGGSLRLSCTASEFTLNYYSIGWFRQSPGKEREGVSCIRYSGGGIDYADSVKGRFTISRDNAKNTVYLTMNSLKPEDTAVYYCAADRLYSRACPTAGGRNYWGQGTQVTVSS : -0.28
